src = patent US20260306514A1

# measurementProtocol: Rat PK of Compound 1, IV and oral suspension (Table 1)
# Parameters: species or system rats
# assayConditions: in vivo, oral suspension, 30 mg/kg

- compoundSmiles: "COc1cccc(CNc2ccc(S(=O)(=O)Nc3nc4ccccc4s3)cc2)c1O"
  half-life: "2.46 h"

* * *

# measurementProtocol: Rat PK of Compound 1, IV and oral suspension (Table 1)
# Set-up: species or system rats
# assayConditions: in vivo, IV, 10 mg/kg
measuredEndpoint: AUC(0-t) (ng·h/mL)

- compoundSmiles: "COc1cccc(CNc2ccc(S(=O)(=O)Nc3nc4ccccc4s3)cc2)c1O"
  measuredEndpoint: "AUC(0-t)"
  observedResult: 100000

* * *

# measurementProtocol: Rat PK of Compound 1, IV and oral solution (Table 2)
# Type: in vivo, rats
# assayConditions: in vivo, po, 30 mg/kg, PO solution, 30 mg/Kg, read-out: F (bioavailability, fraction absorbed)

- compoundSmiles: "COc1cccc(CNc2ccc(S(=O)(=O)Nc3nc4ccccc4s3)cc2)c1O"
  bioavailability (%): 3

* * *

# measurementProtocol: Rat PK of Compound 1, IV and oral solution (Table 2)
# Assay type: in vivo, rats
# assayConditions: in vivo, IV, 3 mg/Kg, read-out: Cl_obs (observed clearance)
measuredEndpoint: clearance (mL/min/kg)

- compound: "COc1cccc(CNc2ccc(S(=O)(=O)Nc3nc4ccccc4s3)cc2)c1O [Compound 1]"
  measuredEndpoint: "clearance"
  observedResult: 0.986

* * *

# measurementProtocol: Rat PK of Compound 1, IV and oral suspension (Table 1)
# Design: species or system rats
# assayConditions: in vivo, IV, 30 mg/kg

- molecule: "COc1cccc(CNc2ccc(S(=O)(=O)Nc3nc4ccccc4s3)cc2)c1O [Compound 1]"
  Cmax, µg/mL: 180

* * *

# measurementProtocol: Rat PK of Compound 1, IV and oral solution (Table 2)
# Assay type: in vivo, rats
# assayConditions: in vivo, PO solution, 30 mg/Kg

- compoundSmiles: "COc1cccc(CNc2ccc(S(=O)(=O)Nc3nc4ccccc4s3)cc2)c1O"
  unitName: "ng·h/mL"
  AUC(0-t): 15200

* * *

# measurementProtocol: Rat PK of Compound 1, IV and oral suspension (Table 1)
# Design: species or system rats
# assayConditions: in vivo, IV, 30 mg/kg
# Excerpt: The intravenous formulation uses cyclodextrin (CD) to increase solubility. However, a drug loading of <10% is not suitable for oral formulation. […]
measuredEndpoint: AUC(0-inf) (µg·h/mL)

- compound: "COc1cccc(CNc2ccc(S(=O)(=O)Nc3nc4ccccc4s3)cc2)c1O [Compound 1]"
  measuredEndpoint: "AUC(0-inf)"
  unitName: "µg·h/mL"
  observedResult: 214

* * *

# measurementProtocol: Rat PK of Compound 1, IV and oral suspension (Table 1)
# Set-up: species or system rats
# assayConditions: in vivo, oral suspension, 30 mg/kg
measuredEndpoint: AUC(0-inf)

- compoundSmiles: "COc1cccc(CNc2ccc(S(=O)(=O)Nc3nc4ccccc4s3)cc2)c1O"
  measuredEndpoint: "AUC(0-inf)"
  observedResult: "768 ng·h/mL"

* * *

# measurementProtocol: Rat PK of Compound 1, IV and oral suspension (Table 1)
# Design: species or system rats
# assayConditions: in vivo, oral suspension, 10 mg/kg

- compound: "COc1cccc(CNc2ccc(S(=O)(=O)Nc3nc4ccccc4s3)cc2)c1O [Compound 1]"
  unitName: "h"
  half-life: 3.41

* * *

# measurementProtocol: Rat PK of Compound 1, IV and oral solution (Table 2)
# Format: in vivo, rats
# assayConditions: in vivo, IV, 3 mg/Kg

- compoundSmiles: "COc1cccc(CNc2ccc(S(=O)(=O)Nc3nc4ccccc4s3)cc2)c1O"
  half-life: "2.59 h"

* * *

# measurementProtocol: Rat PK of Compound 1, IV and oral suspension (Table 1)
# Set-up: species or system rats
# assayConditions: in vivo, oral suspension, 10 mg/kg

- compoundSmiles: "COc1cccc(CNc2ccc(S(=O)(=O)Nc3nc4ccccc4s3)cc2)c1O"
  unitName: "h"
  Tmax: 2.67

* * *

# measurementProtocol: Rat PK of Compound 1, IV and oral suspension (Table 1)
# Set-up: species or system rats
# assayConditions: in vivo, IV, 3 mg/kg

- compoundSmiles: "COc1cccc(CNc2ccc(S(=O)(=O)Nc3nc4ccccc4s3)cc2)c1O"
  unitName: "min"
  Tmax: 4.98
